The values you see were collected from patent US5739278A.

Target: CD45 (Homo sapiens, UniProt P08575)
Construct: CD45 were purified from placenta and spleen, respectively; from tissue; host or cells: spleen
Sequence (P08575 26-1306): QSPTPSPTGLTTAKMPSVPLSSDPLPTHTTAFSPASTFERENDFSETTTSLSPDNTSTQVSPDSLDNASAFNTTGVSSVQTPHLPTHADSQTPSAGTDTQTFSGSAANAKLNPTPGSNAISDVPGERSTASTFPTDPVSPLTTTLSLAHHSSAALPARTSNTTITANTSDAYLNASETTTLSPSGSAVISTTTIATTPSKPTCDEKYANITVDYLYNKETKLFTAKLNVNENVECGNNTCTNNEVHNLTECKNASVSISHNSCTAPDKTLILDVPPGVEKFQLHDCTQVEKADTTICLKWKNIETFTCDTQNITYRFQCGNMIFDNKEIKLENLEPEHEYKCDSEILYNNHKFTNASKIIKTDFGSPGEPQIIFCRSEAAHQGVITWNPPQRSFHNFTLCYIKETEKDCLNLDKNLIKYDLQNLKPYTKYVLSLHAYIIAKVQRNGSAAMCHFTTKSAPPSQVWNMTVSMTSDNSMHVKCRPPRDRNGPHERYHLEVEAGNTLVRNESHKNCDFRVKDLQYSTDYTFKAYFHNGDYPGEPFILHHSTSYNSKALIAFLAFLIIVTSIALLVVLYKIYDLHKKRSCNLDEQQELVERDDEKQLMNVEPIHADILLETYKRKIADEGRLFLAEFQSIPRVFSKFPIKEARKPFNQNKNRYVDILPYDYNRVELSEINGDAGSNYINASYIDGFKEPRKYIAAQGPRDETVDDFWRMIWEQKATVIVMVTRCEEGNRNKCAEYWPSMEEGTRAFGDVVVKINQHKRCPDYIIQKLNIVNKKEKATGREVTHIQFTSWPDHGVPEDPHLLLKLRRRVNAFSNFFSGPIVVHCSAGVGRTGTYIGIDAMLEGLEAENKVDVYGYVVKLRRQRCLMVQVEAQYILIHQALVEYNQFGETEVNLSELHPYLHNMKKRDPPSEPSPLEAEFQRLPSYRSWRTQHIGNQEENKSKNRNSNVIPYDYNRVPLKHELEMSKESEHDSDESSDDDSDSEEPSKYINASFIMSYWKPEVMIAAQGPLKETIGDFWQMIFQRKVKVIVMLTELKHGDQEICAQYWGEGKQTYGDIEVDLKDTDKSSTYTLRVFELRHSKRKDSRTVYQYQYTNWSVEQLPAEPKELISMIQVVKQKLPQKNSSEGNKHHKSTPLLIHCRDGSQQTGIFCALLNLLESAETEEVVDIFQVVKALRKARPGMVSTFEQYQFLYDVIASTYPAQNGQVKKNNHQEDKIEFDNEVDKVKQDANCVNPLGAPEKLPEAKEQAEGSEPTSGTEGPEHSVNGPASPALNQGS
Experiment: Phosphatase assay with ENDY(P)INASL as substrate
Type: biochemical
Conditions: effector 1.0 mM
Kindly supply the reported Phosphatase activity in percent of the value obtained in the absence of effectors values for the records listed here.
The figure you give is taken to be in %; do not add the unit.

Query Phosphatase activity in percent of the value obtained in the absence of effectors on CD45 (Homo sapiens, UniProt P08575) for [Mn+2] 78

Another compound to look at: [Mg+2] 80

Another compound to look at: [Zn+2] 3

Another compound to look at: O=C(O)CN(CCN(CC(=O)O)CC(=O)O)CC(=O)O 96

====

Target: PTP1B (Homo sapiens)
Construct: The 37 kDa form of PTP1B; from tissue; host or cells: placenta
Sequence (P18031 1-321 limits assumed): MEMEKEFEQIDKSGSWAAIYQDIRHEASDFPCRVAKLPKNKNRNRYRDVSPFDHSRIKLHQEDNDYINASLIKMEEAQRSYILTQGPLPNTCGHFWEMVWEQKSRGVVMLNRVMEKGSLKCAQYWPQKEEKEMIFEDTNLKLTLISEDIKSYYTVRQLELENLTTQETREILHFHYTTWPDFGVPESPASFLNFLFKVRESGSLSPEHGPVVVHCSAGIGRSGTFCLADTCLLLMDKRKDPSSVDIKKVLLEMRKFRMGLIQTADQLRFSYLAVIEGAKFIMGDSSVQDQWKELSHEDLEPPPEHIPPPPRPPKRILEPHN
Assay: Phosphatase assay with ENDY(P)INASL as substrate
Type: biochemical
Details: effector 1.0 mM
// NO strictly below 80% in Phosphatase activity in percent of the value obtained in the absence of effectors; YES otherwise

Check this compound for Phosphatase activity in percent of the value obtained in the absence of effectors at or above 80%: [Mn+2] NO

Another compound to look at: O=C(O)CN(CCN(CC(=O)O)CC(=O)O)CC(=O)O YES

Another compound to look at: [Zn+2] NO

====

Kindly supply the reported Phosphatase activity in percent of the value obtained in the absence of effectors values for the records listed here.
Biological target: RPTPα (Homo sapiens, UniProt P18433)
Construct: made in house; host or cells: Sf9 cells (baculovirus)
Sequence (P18433 20-802): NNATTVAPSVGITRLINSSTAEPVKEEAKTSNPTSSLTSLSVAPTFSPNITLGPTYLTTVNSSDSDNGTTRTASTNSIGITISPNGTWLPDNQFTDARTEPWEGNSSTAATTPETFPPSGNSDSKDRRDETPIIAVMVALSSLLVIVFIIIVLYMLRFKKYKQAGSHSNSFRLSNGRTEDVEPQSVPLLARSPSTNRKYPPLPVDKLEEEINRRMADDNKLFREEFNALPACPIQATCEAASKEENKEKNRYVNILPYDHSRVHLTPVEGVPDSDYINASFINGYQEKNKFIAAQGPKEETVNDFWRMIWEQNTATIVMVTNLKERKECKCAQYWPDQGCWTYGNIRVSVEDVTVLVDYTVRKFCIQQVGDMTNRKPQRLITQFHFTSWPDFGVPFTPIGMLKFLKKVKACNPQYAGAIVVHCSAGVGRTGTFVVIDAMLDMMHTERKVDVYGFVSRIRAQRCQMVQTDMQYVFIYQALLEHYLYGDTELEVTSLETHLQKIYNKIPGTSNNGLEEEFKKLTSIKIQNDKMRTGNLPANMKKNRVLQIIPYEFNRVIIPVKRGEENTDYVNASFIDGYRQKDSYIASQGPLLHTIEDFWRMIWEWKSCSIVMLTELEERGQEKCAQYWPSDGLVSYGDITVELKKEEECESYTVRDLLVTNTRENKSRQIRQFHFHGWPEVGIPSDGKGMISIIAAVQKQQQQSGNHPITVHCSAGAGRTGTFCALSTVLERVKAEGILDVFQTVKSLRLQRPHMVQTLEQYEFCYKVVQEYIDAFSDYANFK
Test: Phosphatase assay with ENDY(P)INASL as substrate
Assay type: biochemical
Conditions: effector 1.0 mM
The figure you give is taken to be in %; do not add the unit.

Query Phosphatase activity in percent of the value obtained in the absence of effectors on RPTPα (Homo sapiens, UniProt P18433) for [Zn+2] [Zn^2+] 4

Another molecule to look at: [Mn+2] [Mn^2+] 60

Another molecule to look at: O=C(O)CN(CCN(CC(=O)O)CC(=O)O)CC(=O)O [EDTA] 115

Another molecule to look at: [Mg+2] [Mg^2+] 90

====

Target: PTP1B (Homo sapiens, UniProt P18031)
Construct: The 37 kDa form of PTP1B; from tissue; host or cells: placenta
Assay: Phosphatase assay with ENDY(P)INASL as substrate
Type: biochemical
Conditions: effector 5.0 mM
Kindly supply the reported Phosphatase activity in percent of the value obtained in the absence of effectors values for the records listed here.
In your response, the unit should come after the numeric value.

Query Phosphatase activity in percent of the value obtained in the absence of effectors on PTP1B (Homo sapiens, UniProt P18031) for O=C(O)CN(CCN(CC(=O)O)CC(=O)O)CC(=O)O 110%

Another molecule to look at: NCCCCNCCCN 92%

Another molecule to look at: [Mg+2] 71%

Another molecule to look at: [Mn+2] 20%
